Assign protein stability index to each entry below.
B1: VAMP4 (parent)
chain: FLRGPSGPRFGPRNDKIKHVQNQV

- Variants of: B1
- assaySummary: protein stability index of a GFP-peptide fusion (GPS, HEK-293T) (PSI 1-6); higher = more stable;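 also: lentivirally expressed fusions sorted by FACS into six bins by GFP to DsRed ratio, PSI derived from sequencing read proportions per bin multiplied by bin number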
- setupConditions: c terminus: a fixed tail appended
One number for each entry.

INSERT INTO measurements (orderedresidues, readoutnumber) VALUES
  ('FLRGPSGPRFGPCNDKIKHVQNQV [R13C]', 2.33),
  ('FLRGPSGPRFGSRNDKIKHVQNQV [P12S]', 3.27),
  ('FLRGPSGPRFGPENDKIKHVQNQV [R13E]', 3.15),
  ('FLRGPSGPRFGPRNDKIKQVQNQV [H19Q]', 2.42);

Required: protein stability index, one value per variant below.
1. FLRGPSQPRFGPRNDKIKHVQNQV [G7Q]
2. FLRGPQGPRFGPRNDKIKHVQNQV [S6Q]
3. FLRGPSGPRFGQRNDKIKHVQNQV [P12Q]
4. FLRGNSGPRFGPRNDKIKHVQNQV [P5N]
5. FLRGPSGPRFGPRNDKIKHVQKQV [N22K]

Completion:
[2.68, 2.56, 2.34, 2.94, 2.88]
